Test: physchem
Settings: aqueous buffer pH 1.2, pH 1.2, Concentration by HPLC (thermodynamic solubility), buffer pH 1.2, 20° C., 24 h
Where a SMILES comes first, the peptide text is derived from it. [ ]: non-standard residue; d: D form. Dmt = Cc1cc(O)cc(C)c1C[C@H](N)C(=O)O
recorded.metric: solubility thermodynamic at 24 h (mg/mL)
The reply should be a number in mg/mL, with the unit left off.

QUERY: solubility thermodynamic at 24 h for Cc1cc(O)cc(C)c1C[C@H](NC(=O)[C@H](N)CCCNC(=N)N)C(=O)N[C@@H](CCCCN)C(=O)N[C@@H](Cc1ccccc1)C(N)=O [Tosylate Pattern 1] (H-[dR][Dmt]KF-NH2) ?
RESULT: 23.8

* * *

Assay: physchem
Settings: aqueous buffers pH 1.2, 4.5 and 6.8
Where a SMILES comes first, the peptide text is derived from it. [ ]: non-standard residue; d: D form. Dmt = Cc1cc(O)cc(C)c1C[C@H](N)C(=O)O
recorded.metric: solubility at 24 h

QUERY: solubility at 24 h for Cc1cc(O)cc(C)c1C[C@H](NC(=O)[C@H](N)CCCNC(=N)N)C(=O)N[C@@H](CCCCN)C(=O)N[C@@H](Cc1ccccc1)C(N)=O [Tosylate Pattern 1] (H-[dR][Dmt]KF-NH2) ?
RESULT: ~25 mg/mL
